# Tested on: P12-Ichikawa
# assay: cell viability relative to DMSO control; higher = less cytotoxic
# protocol-conditions: RPMI 5 mM glucose + 10% dialyzed FBS; 48 h; 0.0632 µM
property-measured: cell viability (%)

                         chemical_structure  reported
0  O=C(O)[C@@H](c1ccc(OCc2ccc3ccccc3n2)cc1)C1CCCC1       108
1                              NCCCCCC(=O)O       108
2  CCN1\C=C(C(O)=O)/C(=O)C2=C1C=C(N3CCN(C)CC3)C(=C2)F       109
3  CCOC(CN1C(=O)[C@](CC(=O)Nc2ccc(C)cc2)(NC(=O)Nc2ccc(C)cc2)c2ccccc21)OCC       102
4  COC(=O)Nc1ccc(-c2nc(N3CCOCC3)c3cnn(C4CCN(Cc5cccnc5)CC4)c3n2)cc1       100

====

# Tested on: NOMO1
# assay: cell viability relative to DMSO control; higher = less cytotoxic
# protocol-conditions: HPLM + 10% dialyzed FBS; 48 h; 0.19 µM
property-measured: cell viability (%)

>>> df
                         chemical_structure  tested_system  property_measured  units_text  reported
0  CC(C)(C)Cn1c(N)nc2ccc(-c3[nH]c(C(C)(C)C)nc3-c3ccc(F)cc3)nc21          NOMO1     cell viability           %        81
1  CC1=CC=C2\N=C/3N(CC[C@@]3(O)C(=O)C2=C1)C4=CC=CC=C4          NOMO1     cell viability           %      95.4
2  CC[C@H](NC(C)C)[C@H](O)c1ccc(O)c2[nH]c(=O)ccc12          NOMO1     cell viability           %       113

====

# System: SEM cells
# assay: cell viability relative to DMSO control; higher = less cytotoxic
# protocol-conditions: HPLM + 10% dialyzed FBS; 48 h; 0.0211 µM
Lab note: cut-off is 90%. Strictly less in cell viability is yes (1). Exactly 90% or more is no (0).

                                   molecule  tested_system  answer_label
0  CCc1c(O)cc(O)c(C(=O)c2ccc(OCCN3CCOCC3)c(OC)c2)c1CC(=O)N(CCOC)CCOC      SEM cells        no (0)
1             O=C(NCCO[N+](=O)[O-])c1cccnc1      SEM cells        no (0)
2  COc1ccccc1OCCNCC(O)COc1cccc2[nH]c3ccccc3c12 (stereo unspecified)      SEM cells        no (0)
3  O=[N+]([O-])c1ccc(Nc2ccccc2-c2ccccc2)c2nonc12      SEM cells       yes (1)
4  CCNC(=O)Nc1ccc(-c2nc3c(c(N4CCOC[C@@H]4C)n2)CCN(C2COC2)C3)cc1      SEM cells        no (0)
5  O=C(O)CSCC(=O)NC1CCSC1=O (stereo unspecified)      SEM cells       yes (1)
6            C=CCc1cc(OC)c(O)c(C(=O)NCCO)c1      SEM cells        no (0)
7  CC(=O)OCC(=O)[C@@]12OC(C)(C)O[C@@H]1C[C@H]3[C@@H]4C[C@H](F)C/5=C/C(=O)/C=C\[C@]5(C)[C@@]4(F)[C@@H](O)C[C@]23C      SEM cells       yes (1)
8  COc1cccc2c(NCc3ccccc3)nc(-n3c(N)nc4ccccc43)nc12      SEM cells        no (0)
9     O=C(/C=C/C=C/c1ccc2c(c1)OCO2)N1CCCCC1      SEM cells        no (0)
